Assay: Solubility (37° C.) in 0.1N HCl, pH 4.5, pH 6.8
Format: physicochemical
Details: 37 °C, pH 4.5, aqueous buffer, pH 4.5
Counter-ions that a name gives are not always drawn.
Property: solubility (µg/mL)
Hi! Could you send only the number? It should be in µg/mL, unit omitted.

Lab book: solubility of OCCOCCN1CCN(C2=Nc3ccccc3Sc3ccccc32)CC1 [Quetiapine Fumarate, quetiapine fumarate] noted as 3000

---

Test: Example 22: effect of bupropion (Wellbutrin XL 300 mg) on steady-state pharmacokinetics of citalopram (Celexa 20 mg)
Settings: both, human, in vivo, 20 mg
Property: Tmax (h)
Hi! Could you send only the number? It should be in h, unit omitted.

Lab book: Tmax of CN(C)CCCC1(c2ccc(F)cc2)OCc2cc(C#N)ccc21 (stereo not shown) [Citalopram, citalopram] noted as 3.96

---

Experiment: Solubility (37° C.) in 0.1N HCl, pH 4.5, pH 6.8
Format: physicochemical
Settings: 0.1N HCl, 37 °C, simulated gastric fluid
Where a name gives a salt, the structure may show the parent alone.
Property: solubility (mg/mL)
Hi! Could you send only the number? It should be in mg/mL, unit omitted.

Lab book: solubility of OCCOCCN1CCN(C2=Nc3ccccc3Sc3ccccc32)CC1 [Quetiapine Fumarate, quetiapine fumarate] noted as 41

---

Test: Example 22: effect of bupropion (Wellbutrin XL 300 mg) on steady-state pharmacokinetics of citalopram (Celexa 20 mg)
Details: both, human, in vivo, 20 mg
Property: MRT (h)
Hi! Could you send only the number? It should be in h, unit omitted.

Lab book: MRT of CN(C)CCCC1(c2ccc(F)cc2)OCc2cc(C#N)ccc21 (stereo not shown) noted as 48.6

---

Assay: Example 22: effect of bupropion (Wellbutrin XL 300 mg) on steady-state pharmacokinetics of citalopram (Celexa 20 mg)
Conditions: both, human, in vivo, 20 mg
Property: Vd/F (L)
Hi! Could you send only the number? It should be in L, unit omitted.

Lab book: Vd/F of CN(C)CCCC1(c2ccc(F)cc2)OCc2cc(C#N)ccc21 (stereo not shown) noted as 750

---

Assay: Solubility (37° C.) in 0.1N HCl, pH 4.5, pH 6.8
Type: physicochemical
Details: 37 °C, pH 6.8, aqueous buffer, pH 6.8
Counter-ions that a name gives are not always drawn.
Property: solubility
State the result as a value with its unit after it.

Lab book: solubility of OCCOCCN1CCN(C2=Nc3ccccc3Sc3ccccc32)CC1 [Quetiapine Fumarate, quetiapine fumarate] noted as 300 µg/mL

Reference source for all entries: patent US20090246276A1
